# credit: ChEMBL document CHEMBL1129967

ASSAY_TARGET: Sodium-dependent dopamine transporter (Rattus norvegicus, UniProt P23977)
Sequence (P23977 whole entry): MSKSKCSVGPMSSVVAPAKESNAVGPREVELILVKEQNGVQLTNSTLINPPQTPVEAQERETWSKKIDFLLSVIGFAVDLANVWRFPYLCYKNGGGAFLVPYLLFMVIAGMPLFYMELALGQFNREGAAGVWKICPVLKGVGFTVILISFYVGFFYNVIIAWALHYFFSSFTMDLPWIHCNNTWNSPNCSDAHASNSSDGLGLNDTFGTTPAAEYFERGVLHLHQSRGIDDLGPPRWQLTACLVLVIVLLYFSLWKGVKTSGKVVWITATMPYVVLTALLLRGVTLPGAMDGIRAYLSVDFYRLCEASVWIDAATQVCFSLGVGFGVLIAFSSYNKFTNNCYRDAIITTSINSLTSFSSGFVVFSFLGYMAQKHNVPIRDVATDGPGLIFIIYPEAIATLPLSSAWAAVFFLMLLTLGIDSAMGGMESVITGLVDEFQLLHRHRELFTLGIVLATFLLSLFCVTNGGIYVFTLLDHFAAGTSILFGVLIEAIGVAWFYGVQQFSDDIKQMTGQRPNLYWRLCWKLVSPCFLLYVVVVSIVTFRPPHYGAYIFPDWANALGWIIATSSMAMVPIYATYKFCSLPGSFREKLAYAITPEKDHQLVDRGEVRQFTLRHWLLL
ASSAY_INFO: [3H]-Dopamine uptake inhibition in rat caudate putamen
RECORDED_ENDPOINT: IC50 (nM)
Note: unit nM is implicit; provide only the numeric part.

Examples from the recorded data:
[[record]]
molecule = "CN1[C@@H]2CC[C@H]1C[C@@H](OC(c1ccccc1)c1cccc(C(F)(F)F)c1)C2 (stereo partly drawn)"
assay_target = "Sodium-dependent dopamine transporter (Rattus norvegicus, UniProt P23977)"
obs_value = 457

[[record]]
molecule = "Cc1ccccc1C(O[C@H]1C[C@H]2CC[C@@H](C1)N2C)c1ccccc1 (stereo partly drawn)"
assay_target = "Sodium-dependent dopamine transporter (Rattus norvegicus, UniProt P23977)"
obs_value = 1200

[[record]]
molecule = "CN1[C@@H]2CC[C@H]1C[C@@H](OC(c1ccccc1)c1ccccc1N)C2 (stereo partly drawn)"
assay_target = "Sodium-dependent dopamine transporter (Rattus norvegicus, UniProt P23977)"
obs_value = 373

[[record]]
molecule = "CN1[C@@H]2CC[C@H]1C[C@@H](OC(c1ccccc1)c1ccccc1Cl)C2 (stereo partly drawn)"
assay_target = "Sodium-dependent dopamine transporter (Rattus norvegicus, UniProt P23977)"
obs_value = 997


Prompt: Look up IC50: CN1[C@@H]2CC[C@H]1C[C@@H](OC(c1ccccc1)c1cccc(Cl)c1)C2 (stereo partly drawn)
Completion: 228

---

ASSAY_TARGET: Sodium-dependent dopamine transporter (Rattus norvegicus)
ASSAY_INFO: Selectivity ratio for [3H]-DA uptake inhibition to DAT binding
Type: functional
RECORDED_ENDPOINT: Selectivity ratio
# answer = number (no unit)

[[record]]
compound = "CN1[C@@H]2CC[C@H]1C[C@@H](OC(c1ccccc1)c1ccccc1Cl)C2 (stereo not given in full)"
obs_value = 4.4

[[record]]
compound = "Cc1ccccc1C(O[C@H]1C[C@H]2CC[C@@H](C1)N2C)c1ccccc1 (stereo not given in full)"
obs_value = 3.9

[[record]]
compound = "CN1[C@@H]2CC[C@H]1C[C@@H](OC(c1ccccc1)c1ccccc1F)C2 (stereo not given in full)"
obs_value = 2.8

[[record]]
compound = "CN1C2CCC1CC(OC(c1ccccc1)c1ccc(Cl)cc1)C2 (stereo not given)"
obs_value = 3.8


Turning now to a further compound:
Prompt: Look up Selectivity ratio: `CN1[C@@H]2CC[C@H]1C[C@@H](OC(c1cccc(F)c1)c1cccc(F)c1)C2`
Completion: 8.6

---

ASSAY_TARGET: Sodium-dependent dopamine transporter (Rattus norvegicus, UniProt P23977)
ASSAY_INFO: [3H]-Dopamine uptake inhibition in rat caudate putamen
pIC50 listing for selected molecules.
The scale used: pIC50 is minus the common logarithm of the concentration in molar units.

Examples from the recorded data:
[[record]]
molecule = "CN1[C@@H]2CC[C@H]1C[C@@H](OC(c1ccccc1)c1cccc(F)c1)C2 (stereo partly drawn)"
obs_value = 6.60

[[record]]
molecule = "CN1[C@@H]2CC[C@H]1C[C@@H](OC(c1ccccc1)c1ccccc1F)C2 (stereo partly drawn)"
obs_value = 6.85


Prompt: Hello, I am looking for reported pIC50 with Sodium-dependent dopamine transporter (Rattus norvegicus, UniProt P23977) for `CN1[C@@H]2CC[C@H]1C[C@@H](OC(c1cccc(F)c1)c1cccc(F)c1)C2` . Could you help?
Completion: 6.39
